All figures here come from ChEMBL document CHEMBL3734756.

Biological target: Trypanothione reductase (Leishmania donovani, UniProt P39050)
Sequence (P39050 whole entry): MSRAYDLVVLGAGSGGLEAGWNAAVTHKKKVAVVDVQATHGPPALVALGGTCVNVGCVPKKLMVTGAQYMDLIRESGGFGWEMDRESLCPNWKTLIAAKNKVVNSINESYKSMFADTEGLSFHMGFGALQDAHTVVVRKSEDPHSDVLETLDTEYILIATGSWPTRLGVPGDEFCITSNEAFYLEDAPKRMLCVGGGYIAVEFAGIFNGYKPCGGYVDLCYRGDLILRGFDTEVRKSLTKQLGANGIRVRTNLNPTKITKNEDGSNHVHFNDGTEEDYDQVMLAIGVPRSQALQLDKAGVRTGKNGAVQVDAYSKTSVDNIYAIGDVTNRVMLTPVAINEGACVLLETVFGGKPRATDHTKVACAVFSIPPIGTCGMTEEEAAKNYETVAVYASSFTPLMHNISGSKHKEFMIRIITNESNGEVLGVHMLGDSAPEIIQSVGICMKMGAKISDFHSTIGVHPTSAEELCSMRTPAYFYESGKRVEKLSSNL
Test: Competitive inhibition of recombinant Leishmania donovani trypanothione reductase expressed in Escherichia coli BL21 (DE3) by Dixon plot analysis in presence of trypanothione disulphide
quantity: Ki (µM)
A number alone suffices; assume µM.

Asked: Check the records and state Ki for CCCCCN1C(=O)c2ccccc2NC1c1nc(C(=O)OC)cc2c1[nH]c1ccccc12 (stereo unspecified)
Given back: 0.8

Asked: Check the records and state Ki for COC(=O)c1cc2c([nH]c3ccccc32)c(C2Nc3ccccc3C(=O)N2c2ccc(Cl)cc2)n1 (stereo unspecified)
Given back: 7.2

Asked: Check the records and state Ki for COC(=O)c1cc2c([nH]c3ccccc32)c(C2Nc3ccccc3C(=O)N2Cc2ccc(OC)cc2)n1 (stereo unspecified)
Given back: 9.2

Asked: Check the records and state Ki for CCN1C(=O)c2ccccc2NC1c1nc(C(=O)OC)cc2c1[nH]c1ccccc12 (stereo unspecified)
Given back: 6.5

Asked: Check the records and state Ki for COC(=O)c1cc2c([nH]c3ccccc32)c(C2Nc3ccccc3C(=O)N2Cc2ccc(Cl)c(Cl)c2)n1 (stereo unspecified)
Given back: 3.7

Asked: Check the records and state Ki for COC(=O)c1cc2c([nH]c3ccccc32)c(C2Nc3ccccc3C(=O)N2c2ccc(F)cc2)n1 (stereo unspecified)
Given back: 3.9
